Would you kindly list Dmax for each of these compounds?
Molecular target: ITK (Homo sapiens)
Sequence (Q08881 whole entry): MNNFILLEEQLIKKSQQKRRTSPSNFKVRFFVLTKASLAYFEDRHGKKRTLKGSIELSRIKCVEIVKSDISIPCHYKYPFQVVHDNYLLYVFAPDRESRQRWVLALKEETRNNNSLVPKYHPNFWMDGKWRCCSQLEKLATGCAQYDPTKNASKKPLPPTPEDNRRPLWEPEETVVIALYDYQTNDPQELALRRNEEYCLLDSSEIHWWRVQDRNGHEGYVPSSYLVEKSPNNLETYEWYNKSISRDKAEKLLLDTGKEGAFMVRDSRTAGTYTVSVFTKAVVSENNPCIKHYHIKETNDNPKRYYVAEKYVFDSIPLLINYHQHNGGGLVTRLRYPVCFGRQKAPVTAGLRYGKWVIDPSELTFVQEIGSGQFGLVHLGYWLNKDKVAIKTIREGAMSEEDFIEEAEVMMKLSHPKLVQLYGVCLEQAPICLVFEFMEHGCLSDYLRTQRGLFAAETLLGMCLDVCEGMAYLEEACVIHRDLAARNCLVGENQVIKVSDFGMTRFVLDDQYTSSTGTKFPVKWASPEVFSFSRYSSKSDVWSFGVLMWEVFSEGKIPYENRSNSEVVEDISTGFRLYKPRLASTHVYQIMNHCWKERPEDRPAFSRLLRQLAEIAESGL
Assay: ITK degradation HiBiT assay
Type: cell-based
Set-up: expressed in transfected cells; host or cells: Molt4 (ATCC CRL-1552), monoclonal clone 1C10, engineered to carry the HiBiT tag
Conditions: MOLT-4, C-terminal HiBiT-tagged Molt4 cells, 4 hrs
Numbers only, in %.

Here is how some compounds turned out for Dmax.
COMPOUND: C[C@H]1CN(C(=O)c2ccc3cc(-c4n[nH]c5c4CCC(C)(C)C5)[nH]c3c2)CCN1CC1CCN(c2ccc(C3CCC(=O)NC3=O)cn2)CC1 (some centres unmarked) [Compound 131]
Dmax (%): 84

COMPOUND: C[C@H]1CN(C(=O)c2ccc3cc(-c4n[nH]c5c4C[C@@H]4C(F)(F)[C@]4(C)C5)[nH]c3c2)CCN1CC1CCN(c2ccc(C3CCC(=O)NC3=O)cc2F)CC1 (mixture of isomers) [Compound 155]
Dmax (%): 84

COMPOUND: C[C@@H](C(=O)N(C)c1ccc2cc(-c3n[nH]c4c3C[C@@H]3C(F)(F)[C@]3(C)C4)[nH]c2c1)N1CCN(C[C@H]2CCN(c3ccc4c(c3)C(=O)N(C3CCC(=O)NC3=O)C4=O)C2)CC1 (some centres unmarked) [Compound 9]
Dmax (%): 85

COMPOUND: Cn1c(=O)n([C@H]2CCC(=O)NC2=O)c2cccc(N3CCC(CN4CCN(C(=O)c5ccc6cc(-c7n[nH]c8c7CCC(C)(C)C8)[nH]c6c5)CC4)CC3)c21 [Compound 46]
Dmax (%): 79

COMPOUND: C[C@@]12Cc3[nH]nc(C(=O)Nc4cnn([C@H]5CC[C@H](CN6CCN(c7ccc(C(=O)NC8CCC(=O)NC8=O)nc7)CC6)CC5)c4)c3C[C@@H]1C2(F)F (mixture of isomers) [Compound 127]
Dmax (%): 69

COMPOUND: C[C@H]1CN(c2ccc(C3CCC(=O)NC3=O)cn2)CCN1CC1CCN(C(=O)c2ccc3cc(-c4n[nH]c5c4CCC(C)(C)C5)[nH]c3c2)CC1 (some centres unmarked) [Compound 190]
Dmax (%): 86

Your task in this section: give Dmax for each listed record.
1. CC1(C)CCc2c(-c3cc4cc(F)c(C(=O)N5CCN(CC6CCN(c7ccc(C8CCC(=O)NC8=O)cn7)CC6)CC5)cc4[nH]3)n[nH]c2C1 (centres unmarked) [Compound 136]
2. C[C@@]12Cc3[nH]nc(C(=O)Nc4cnn([C@H]5CCN(C[C@H]6CCN(c7ccc(C8CCC(=O)NC8=O)cc7)C6)C[C@@H]5F)c4)c3C[C@@H]1C2(F)F (some centres unmarked) [Compound 98]
3. C[C@@]12Cc3[nH]nc(C(=O)Nc4cnn([C@@H]5CCN(C[C@@H]6CCN(c7ccc(C8CCC(=O)NC8=O)cc7)C6)C[C@H]5F)c4)c3C[C@@H]1C2(F)F (some centres unmarked) [Compound 101]
4. C[C@@H](C(=O)N(C)c1ccc2cc(-c3n[nH]c4c3CCC(C)(C)C4)[nH]c2c1)N1CCN(C(=O)C2CN(C3CCN(c4ccc5c(c4)C(=O)N(C4CCC(=O)NC4=O)C5=O)CC3)C2)CC1 (some centres unmarked) [Compound 34]
5. C[C@@]12Cc3[nH]nc(-c4cc5ccc(C(=O)N6CC7CCC(C6)N7CC6CCN(c7ccc(C8CCC(=O)NC8=O)cc7)CC6)cc5[nH]4)c3C[C@@H]1C2(F)F (mixture of isomers) [Compound 154]

A.
80
89
87
89
76
